conditions: buffer; pH 7.4; 200.0 µM
// reported solubility kinetic for each item listed
Give your result in µg/mL as a bare value.

Sample records with solubility kinetic:
STRUCTURE SMILES STRING	solubility kinetic (µg/mL)
COc1ccc(NC(=O)Cc2ccc(C)c(C)c2)cc1Cl	2.1
CN(Cc1ccccc1)Cc1c(O)ccc2ccccc12	26.6
Cc1[nH]c2ccccc2c1C(=O)COc1ccccc1F	1.6
CCOC(=O)c1ccc(Nc2c(OCC)c(=O)c2=O)cc1	21.6
Cc1ccc2nc(-c3cc(-c4ccccc4)no3)cn2c1	0.3
COc1ccccc1NC(=O)Nc1ccc(CC#N)cc1	1.4
O=S(=O)(NCc1ccc2c(c1)OCO2)c1ccc(F)c(F)c1	47.7

Recorded solubility kinetic for COc1ccc(/C=C/C(=O)NC(=S)N2CCSCC2)cc1 , please? 11.1

* * *

settings: buffer; pH 7.4; 200.0 µM
Tag: criterion met if measured solubility kinetic is not below 10 µg/mL, criterion not met if it is.

Example results:
COMPOUND	ANSWER LABEL
O=C(OCc1cnc(Cl)s1)c1c(F)cccc1F	criterion met
O=C(CNC(=O)c1ccccc1F)Nc1ccc2c(c1)OCO2	criterion met
C/C(=C\c1cccc(Cl)c1Cl)C(=O)c1c(C)cc(C)[nH]c1=O	criterion not met
COc1ccc(C(=O)NC(C)CCc2ccccc2)cc1[N+](=O)[O-] (stereo not drawn)	criterion met
C=CCOc1ccc(/C=C2/C(=O)ON=C2C)cc1OC	criterion met

Dear colleague, could you confirm whether CC1CN=C(Nc2ccc(F)cc2)S1 (stereo not drawn) has solubility kinetic at or above 10 µg/mL? criterion met

Dear colleague, could you confirm whether CS(=O)(=O)c1ccc(Cl)c(NC(=O)CCNC(=O)c2ccco2)c1 has solubility kinetic at or above 10 µg/mL? criterion met

* * *

// reported log10 solubility kinetic for each item listed
settings: buffer; pH 7.4; 200.0 µM
Scale: decimal log of solubility kinetic, solubility kinetic in µg/mL.

Recorded log10 solubility kinetic for Cc1ccc(NC(=O)c2ccc3c(c2)OCCO3)cc1C , please? 1.41

Recorded log10 solubility kinetic for O=C(CSc1ccc([N+](=O)[O-])cc1)NCC1CCCCC1 , please? 0.91

Recorded log10 solubility kinetic for COc1ccc(-c2csc(NC(=O)CN3C(=O)C4CC=CCC4C3=O)n2)cc1OC (stereo unspecified) , please? 1.20

Recorded log10 solubility kinetic for O=C(Nc1ccccc1)c1cc([N+](=O)[O-])ccc1N1CCCCC1 , please? 0.23

Recorded log10 solubility kinetic for COc1cccc(CNC(=O)COC(=O)c2c(NC(C)=O)sc(C)c2C)c1 , please? 0.28

Recorded log10 solubility kinetic for O=C(CN1C(=O)NC2(CCc3ccccc32)C1=O)c1ccc(Br)cc1 (stereo unspecified) , please? 0.64

Recorded log10 solubility kinetic for COc1ccccc1/C=N/OCc1ccc(C#N)cc1 , please? -0.05

Recorded log10 solubility kinetic for O=C(NC1CCCCC1)c1ccc(-c2cccc([N+](=O)[O-])c2)o1 , please? 0.45

Recorded log10 solubility kinetic for O=C(COC(=O)c1ccc(Br)o1)NCc1ccccc1Cl , please? 0.95

Recorded log10 solubility kinetic for CNC(=O)c1cnc(-c2ccccc2)nc1-c1ccccc1 , please? 1.17

* * *

conditions: buffer; pH 7.4; 200.0 µM
Tag: 1 if measured solubility kinetic is not below 20 µg/mL, -1 if it is.

COMPOUND	ANSWER LABEL
O=C(CN1CCN(Cc2ccc(F)cc2)C1=O)NC1CCCC1	1

Dear colleague, could you confirm whether Cc1ccccc1OCC(=O)NCC(c1ccco1)N1CCCCC1 (stereo not given) has solubility kinetic at or above 20 µg/mL? 1

Dear colleague, could you confirm whether CCOc1ccc(NC(=O)c2ccc(CN3CCc4ccccc4C3)cc2)cc1 has solubility kinetic at or above 20 µg/mL? -1

Dear colleague, could you confirm whether Cn1cccc1C1CCCN1CC(=O)Nc1ccc(C#N)c(Cl)c1 (stereo not given) has solubility kinetic at or above 20 µg/mL? -1

Dear colleague, could you confirm whether CCCCN1C(=O)CCC(C(=O)O)C1c1ccc([N+](=O)[O-])cc1 (stereo not given) has solubility kinetic at or above 20 µg/mL? 1

Dear colleague, could you confirm whether O=C(NCCCn1ccnc1)C(=O)c1c[nH]c2ccccc12 has solubility kinetic at or above 20 µg/mL? 1

Dear colleague, could you confirm whether CCCN(CC(=O)Nc1ccccc1OC)C(=O)Cc1ccccc1F has solubility kinetic at or above 20 µg/mL? 1

Dear colleague, could you confirm whether CCn1nc(C(C)C(=O)O)c2ccccc2c1=O (stereo not given) has solubility kinetic at or above 20 µg/mL? 1

Dear colleague, could you confirm whether O=C(CCNC(=O)c1ccco1)Nc1ccc(OC(F)F)cc1 has solubility kinetic at or above 20 µg/mL? 1

Dear colleague, could you confirm whether Cc1ccc(N2C(=O)C3CCCN3C2=S)cc1Cl (stereo not given) has solubility kinetic at or above 20 µg/mL? 1

* * *

conditions: buffer; pH 7.4; 200.0 µM
// reported log10 of solubility kinetic for each item listed
Scale: decimal log of solubility kinetic, solubility kinetic in µg/mL.

COMPOUND	ENDPOINT RESULT
CCC(=O)Nc1cc(C(=O)O)ccc1Sc1ccc(C)cc1	1.59
Cc1nc([N+](=O)[O-])cn1CC(=O)c1ccc(Cl)cc1	0.57
COc1ccc(OC(=O)NCCc2ccccc2)cc1	1.39
CCCCCC1CC(CC(=O)Nc2ccc([N+](=O)[O-])cc2)OC1=O (configuration not stated)	-0.30

Recorded log10 of solubility kinetic for CC(C)CC(=O)NC(C)C(c1cccs1)N1CCOCC1 (configuration not stated) , please? 1.66

Recorded log10 of solubility kinetic for CC(C)C(OC(=O)c1ccccc1)c1nccc2ccccc12 (configuration not stated) , please? 0.84

Recorded log10 of solubility kinetic for Cc1ccc(CSCC(=O)NCc2cccs2)cc1 , please? 1.62

* * *

settings: buffer; pH 7.4; 200.0 µM
ASSAY METRIC: solubility kinetic (µg/mL)
Give your result in µg/mL as a bare value.

COMPOUND	ENDPOINT RESULT
NS(=O)(=O)c1ccc(NC(=O)COC(=O)c2ccc(S(=O)(=O)N3CCOCC3)cc2)cc1	13

Recorded solubility kinetic for O=C(Nc1nccs1)C1CC=CCC1 (stereo not drawn) , please? 22.7

Recorded solubility kinetic for Cc1ccc(S(C)(=O)=NC(=O)NC(=O)c2c(Cl)cccc2Cl)cc1 (stereo not drawn) , please? 41.3

Recorded solubility kinetic for COc1ccc(CC(=O)NC2CCCc3ccccc32)cc1 (stereo not drawn) , please? 15.8

Recorded solubility kinetic for CC(=O)Nc1cccc(C(=O)OCC(=O)Nc2ccc(Cl)cn2)c1 , please? 6.9

Recorded solubility kinetic for O=C(NCCCN1CCOCC1)c1cc(-c2ccco2)nc2ccccc12 , please? 49.6

Recorded solubility kinetic for O=C1N(Cc2cccc(Cl)c2)C[C@@H]2C[C@@H](c3ccccn3)N3CCC[C@@]123 , please? 39

Recorded solubility kinetic for CCN1CCN(C(CNS(=O)(=O)c2cccs2)c2cccnc2)CC1 (stereo not drawn) , please? 49.3

Recorded solubility kinetic for Cc1ccc(NC(=O)CNC(=O)Cc2cccc3ccccc23)nc1 , please? 11.6

* * *

// reported solubility kinetic for each item listed
conditions: buffer; pH 7.4; 200.0 µM
Give your result in µg/mL as a bare value.

Sample records with solubility kinetic:
STRUCTURE SMILES STRING	ASSAY METRIC	U	ENDPOINT RESULT
Cc1nc2nc(SCc3nc4ccccc4[nH]3)[nH]c2cc1Br	solubility kinetic	µg/mL	1.1
O=C(NCc1ccccc1)C12CC3CC(CC(Cl)(C3)C1)C2	solubility kinetic	µg/mL	5

Consider the record given below.
Recorded solubility kinetic for COc1ccc(CC(=O)Nc2cccc3ccccc23)cc1OC , please? 7.1

* * *

details: buffer; pH 7.4; 200.0 µM
ASSAY METRIC: log10(solubility kinetic) (log10 of the value in µg/mL)
Scale: decimal log of solubility kinetic, solubility kinetic in µg/mL.

Sample records with log10(solubility kinetic):
MOLECULE	log10(solubility kinetic)
Cc1cc(C)c(C)c(S(=O)(=O)NCc2ccncc2)c1C	1.41
O=C1NC(=S)N/C1=C/c1ccc2c(c1)OCO2	0.18
CCSc1nsc(NC(=O)Nc2ccc(F)cc2F)n1	0.23

Recorded log10(solubility kinetic) for O=C(CN1C(=O)c2ccccc2S1(=O)=O)c1ccc(F)c(F)c1 , please? 1.68

Recorded log10(solubility kinetic) for COc1cccc(/C=C/C(=O)OCC(=O)NCCC2=CCCCC2)c1OC , please? 0.84

Recorded log10(solubility kinetic) for O=C(COC(=O)c1cccnc1Cl)NC(=O)c1ccc(OC(F)F)cc1 , please? 1.00

* * *

settings: buffer; pH 7.4; 200.0 µM
ASSAY METRIC: solubility kinetic (µg/mL)
Give your result in µg/mL as a bare value.

Sample records with solubility kinetic:
MOLECULE	ASSAY METRIC	ENDPOINT RESULT
O=C(NC1CCCCC1)N1CCN(c2ccc([N+](=O)[O-])cc2)CC1	solubility kinetic	12.7
O=C(NCc1ccco1)C1CC(c2ccc(Cl)cc2)=NO1 (configuration not stated)	solubility kinetic	2.9
O=C(N1CCOCC1)N1CCN(S(=O)(=O)c2ccc(Cl)cc2)C1	solubility kinetic	44.5
C=CCSc1nc(N)c2c3c(sc2n1)CN(C)CC3	solubility kinetic	43.5
COc1ccc(NC(=O)NC2CCCc3ccccc32)cc1 (configuration not stated)	solubility kinetic	1.9
Cc1ccc(NC(=O)COC(=O)C2(CC(=O)NC(C)C)CCCC2)cc1C	solubility kinetic	3.6

Recorded solubility kinetic for Cc1ccc(Nc2c(-c3ccccc3O)nc3ncccn23)cc1 , please? 0.7

Recorded solubility kinetic for CCc1c(C)nc(N2CCN(c3ccccc3F)CC2)[nH]c1=O , please? 5.6

Recorded solubility kinetic for Cc1ccc(SCC(=O)NCCc2ccc(F)cc2)cc1 , please? 13.6
